Quick reference: pKd of the listed items.
molecular target: COVID-19 S.P. RBD (Cat. #40592-V08B, SB) (SARS-CoV-2, UniProt P0DTC2 319-541)
Convention used: pKd is expressed as -log10 of the molar concentration.

Reference set (4 entries):
BINDER	pKd
Fc tagged nanobody VHH43 (Fc fusion) EVQLVESGGGLVQPGGSLRLSCAASGFISDADIMGWFRQAPGKGRELVASINSYDSITYYPDSVEGRFTISRDNAKRMVYLQMNSLRAEDTAVYYCAVRVHSRDFSYWGQGTQVTVSSGSGGGGSGGGGS	8.84
Fc tagged nanobody VHH34 (Fc fusion) EVQLVESGGGLVQPGGSLRLSCAASGFIYSFNIMGWFRQAPGKGRELVASINWFSDITYYPDSVEGRFTISRDNAKRMVYLQMNSLRAEDTAVYYCAAYLLRGDDRYYATYSYWGQGTQVTVSSGSGGGGSGGGGS	8.55
Fc tagged nanobody VHH80 (Fc fusion) EVQLVESGGGLVQPGGSLRLSCAASGFISNFNLMGWFRQAPGKGRELVATINSFDDITYYPDSVEGRFTISRDNAKRMVYLQMNSLRAEDTAVYYCAAEVRSSLDYALWTSRRSAFSYWGQGTQVTVSSGSGGGGSGGGGS	8.37
Fc tagged nanobody VHH60 (Fc fusion) EVQLVESGGGLVQPGGSLRLSCAASGRTFRVNLMGWFRQAPGKGRELVASINGFDDITYYPDSVEGRFTISRDNAKRMVYLQMNSLRAEDTAVYYCAAYDSDYDGRLFNYWGQGTQVTVSSGSGGGGSGGGGS	8.59

Any idea what pKd was measured for Fc tagged nanobody VHH79 (Fc fusion) EVQLVESGGGLVQPGGSLRLSCAASGFTSRNYFMGWFRQAPGKGRELVATINSLSSITYYPDSVEGRFTISRDNAKRMVYLQMNSLRAEDTAVYYCAVYTPTTGPGEGSYTPWHDYWGQGTQVTVSSGSGGGGSGGGGS ?
8.46
